Assay: drug combination growth inhibition, ovarian cancer – cell-based, oncology-focused library, rucaparib conditional, profiling panel (AID 1508598)
Conditions: patient-derived ovarian cancer cells, CellTiter-Glo viability, 144 h; at 0.0781 µM; OCI-P5x cells; without rucaparib; stronger effect = lower value
MEASUREMENT NAME: viability (%)

In [3]: df
Out[3]:
                                 mol_smiles  measurement_name  result_number
0  CNC(=O)c1ccc(N2C(=S)N(c3ccc(C#N)c(C(F)(F)F)c3)C(=O)C2(C)C)cc1F         viability           85.3
1  COC(=O)Nc1ccc(-c2nc(N3CCOCC3)c3cnn(C4CCN(C(=O)OC)CC4)c3n2)cc1         viability            101
2           NC(=O)c1ccc(I)c([N+](=O)[O-])c1         viability            102
3            Cc1cccc(Nc2nc(-c3ccncc3)cs2)c1         viability            101
4  S=C(NCc1ccc2c(c1)OCO2)N1CCN(c2ncnc3c2oc2ccccc23)CC1         viability            101
5    N#Cc1c(NC(=O)c2cccc3ccccc23)sc2c1CCCC2         viability            102

----------
Test: growth inhibition, single agents and combos, LFS_MB_1R, cell-based, cisplatin or BGB combos, synergistic combos for chromothripsis tumors (AID 1671452);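 further: cells exposed for 96 hours before readout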
Conditions: LFS_MB_1R medulloblastoma cells, measured here: combination with BGB IC40, at 0.05 µM, stronger effect = higher value
inhibition vs -10%: at or above is Fulfilled, below is Not fulfilled.

MOLECULE	LABEL
COc1ccc(-n2c(SCCCN3C(=O)c4cccc5cccc(c45)C3=O)nnc2-c2ccncc2)cc1	Not fulfilled
Cc1ccc([N+](=O)[O-])cc1S(=O)(=O)N(C)/N=C/c1cnc2ccc(Br)cn12	Not fulfilled
CCCCc1nc2cc(/C=C/C(=O)NO)ccc2n1CCN(CC)CC	Not fulfilled
N=C1CCCN1Cc1[nH]c(=O)[nH]c(=O)c1Cl	Fulfilled
Cc1ccc2nc(NCCN)c3ncc(C)n3c2c1	Not fulfilled
CS(=O)(=O)c1ccc(-c2nnc(/C=C/c3nnc(-c4ccc(C#N)cc4)o3)n2-c2ccccc2Cl)nc1	Fulfilled
CN(C)CCN1C(=O)c2cccc3cc(N)cc(c23)C1=O	Not fulfilled
O=c1cc(N2CCOCC2)oc2c(-c3cccc4c3sc3ccccc34)cccc12	Not fulfilled
NC(=O)c1nc(F)c[nH]c1=O	Fulfilled
COc1cc2ncnc(-n3nc(-c4ccccn4)nc3N)c2cc1OC	Not fulfilled
NCCOc1cc(C(=O)Nc2cc(OCCN)c3ccccc3n2)nc(C(=O)Nc2cc(OCCN)c3ccccc3n2)c1	Not fulfilled
CO[C@H]1/C=C/O[C@@]2(C)Oc3c(C)c(O)c4c(O)c(c(/C=N\N5CCN(C6CCCC6)CC5)c(O)c4c3C2=O)NC(=O)/C(C)=C\C=C\[C@H](C)[C@H](O)[C@@H](C)[C@@H](O)[C@@H](C)[C@H](OC(C)=O)[C@@H]1C	Fulfilled
CN[C@@H]1CN(c2ccc3c(=O)c(C(=O)O)cn(-c4nccs4)c3n2)C[C@H]1OC	Fulfilled
COc1ccc(C(=O)CC2(O)C(=O)Nc3c(Cl)ccc(Cl)c32)cc1 (centres undefined)	Not fulfilled
CC(=O)Nc1nc(C)c(-c2ccc(Cl)c(S(=O)(=O)NCCO)c2)s1	Not fulfilled
CC(=O)Nc1ccc(C(=O)Nc2ccccc2N)cc1	Not fulfilled
C=C1[C@H](CO)[C@@H](O)C[C@@H]1n1cnc2c(=O)[nH]c(N)nc21	Fulfilled
C[C@]12CCCN1CC1=NNC(=O)c3cc(F)cc4[nH]c2c1c34	Fulfilled
CN(C)C/C=C/C(=O)Nc1ccc(C(=O)Nc2cccc(Nc3ncc(Cl)c(-c4c[nH]c5ccccc45)n3)c2)cc1	Fulfilled

----------
Test: viability loss in pontine glioma line – cell-based, SU-DIPG-XXV, MIPE5.0, CellTiter-Glo, qHTS, dose response (AID 1347065);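 further: cells exposed to compound for 48 hours before ATP readout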
Conditions: CellTiter-Glo ATP luminescence
Results filed as inconclusive are left out. Active and inactive are the calls of the source. The limit is not given here; nearly all actives have AC50 up to about 26 µM.
Outcomes: active, inactive

In [3]: df
Out[3]:
                                 mol_smiles     label
0  C=C1c2cccc(O)c2C(O)=C2C(=O)[C@@]3(O)C(O)=C(C(N)=O)C(=O)[C@@H](N(C)C)[C@@H]3[C@@H](O)[C@H]12  inactive
1  Cn1cc(-c2ccc(S(=O)(=O)n3ccc(/C=C/C(=O)Nc4ccccc4N)c3)cc2)cn1    active
2  CC(C)Oc1cc(Nc2nc(N[C@@H](C)c3ccc(F)cn3)ncc2Cl)[nH]n1    active
3  COc1ccccc1C(=O)Nc1cc2c(cc1N1CCCCC1)n(C)c(=O)n2C    active
4  Cc1cnc(-c2cc(N3CCN(C(=O)CCS(C)(=O)=O)CC3)ncc2Cl)c(C)c1  inactive
5  Cc1cn(CCN2CCN(c3ccccc3-c3cc(C#N)cc(C(=O)NCCCN4CCCC4)c3)CC2)c2ccccc12    active
6  CN(C)CCNC(=O)COc1c2cccc1Cc1cccc(c1OCC(=O)NCCN(C)C)Cc1cccc(c1OCC(=O)NCCN(C)C)Cc1cccc(c1OCC(=O)NCCN(C)C)C2  inactive
7     N#CNC(=NCCCCCCOc1ccc(Cl)cc1)Nc1ccncc1    active

----------
Experiment: viability loss in pontine glioma line – cell-based, SU-DIPG-XVII, MIPE5.0, CellTiter-Glo, qHTS, dose response (AID 1347060);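 on AC50: cells exposed to compound for 48 hours before viability readout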
Conditions: CellTiter-Glo ATP luminescence
Results filed as inconclusive are left out. Active and inactive are the calls of the source. Cut-off not given; nearly all actives show AC50 up to about 26 µM.
Outcomes: y for active, n for inactive

                                 mol_smiles  label
0  CCC(CC)CC1(C(=O)Nc2ccccc2SC(=O)C(C)C)CCCCC1      n
1  CCNCCS(=O)(=O)NC[C@@]1(c2ccccc2)SC(NC(=O)C(C)(C)C)=NN1C(=O)C(C)(C)C      y
2  CC1(C)O[C@@H]2C[C@H]3[C@@H]4CCC5=CC(=O)C=C[C@]5(C)[C@H]4[C@@H](O)C[C@]3(C)[C@]2(C(=O)CO)O1      n
3  O=C1NC(=O)/C(=C/c2ccc3c(c2)OC(F)(F)O3)S1      n
4  Cc1ccccc1-n1nc(-c2c(-c3ccc(F)cc3)nn3c2NC[C@@H](CO)C3)ccc1=O      n
5  O=C(Nc1ccc(Oc2ccnc3[nH]ccc23)c(F)c1)c1cccn(-c2ccc(F)cc2)c1=O      n
6  CO[C@@H]1[C@H](N(C)C(=O)c2ccccc2)C[C@H]2O[C@]1(C)n1c3ccccc3c3c4c(c5c6ccccc6n2c5c31)C(=O)NC4      y
7    O=C(NC[C@H](O)CO)c1ccncc1Nc1ccc(I)cc1F      y
8  NCc1c[nH]c(=S)n1[C@H]1CCc2c(F)cc(F)cc2C1      n

----------
Below: a set of entries, each annotated with reported inhibition.
Test: growth inhibition, single agents and combos, CRL2098, cell-based, BGB or cisplatin IC20 combos, synergistic combos for chromothripsis tumors (AID 1671454);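 further: cells exposed for 96 h before readout; 0% = vehicle DMSO and 100% = killing by high DMSO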
Conditions: CRL2098 osteosarcoma cells, drug combinations, measured here: combination with cisplatin at IC20, at 0.5 µM, stronger effect = higher value
MEASUREMENT NAME: inhibition

                                 mol_smiles  measurement_name  result
0  Cc1cn([C@@H]2O[C@H](CO)[C@@H](O)[C@@H]2F)c(=O)[nH]c1=O        inhibition  -15.6%
1  CN(C)Cc1c(C(=O)NCCOc2ccc(C(=O)NO)cc2)oc2ccccc12        inhibition   21.9%
2             O=C(O)CO.[NH2-].[NH2-].[Pt+2]        inhibition   11.3%
3  CC(=O)[C@]1(N)Cc2c(O)c3c(c(O)c2[C@@H](O[C@H]2C[C@H](O)[C@H](O)CO2)C1)C(=O)c1ccccc1C3=O        inhibition  -55.8%
4  COc1cc2ncnc(-n3nc(-c4ccccn4)nc3N)c2cc1OC        inhibition  -60.2%
5        CN(C)c1ccc(C(=O)NCCCCCCC(=O)NO)cc1        inhibition   6.53%
6  C=C1[C@H](CO)[C@@H](O)C[C@@H]1n1cnc2c(=O)[nH]c(N)nc21        inhibition  -29.3%
7          CC(=O)Nc1ccc(C(=O)Nc2ccccc2N)cc1        inhibition  -8.49%
8  O=C(/C=C/c1cccc(S(=O)(=O)Nc2ccccc2)c1)NO        inhibition   6.33%

----------
Assay: viability loss in pontine glioma line – cell-based, SU-DIPG-XIII, MIPE5.0, CellTiter-Glo, qHTS, dose response (AID 1347064);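 on AC50: cells exposed to compound for 48 hours before the viability read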
Conditions: CellTiter-Glo ATP luminescence
Inconclusive results are not listed. Active and inactive are the calls of the source. Cut-off not given; nearly all actives show AC50 up to about 23 µM.
Outcomes: active, inactive

MOLECULE	LABEL
CC1(C(=O)O)CCC2(C)CCC3(C)C(=CC(=O)C4C5(C)CCC(OC6OC(C(=O)O)C(O)C(O)C6OC6OC(C(=O)O)C(O)C(O)C6O)C(C)(C)C5CCC43C)C2C1 (stereo not drawn)	inactive
CN1CCCN(C(=O)c2cccc(-c3ccc(/C=C4/C(=O)Nc5ccc(Cl)cc54)o3)c2)CC1	active
CC1(C)SCCN(S(=O)(=O)c2ccc(OCC#CCO)cc2)[C@H]1C(=O)NO	inactive
COc1cccc(Nc2c(C(N)=O)cnc3c(C)cc(S(=O)(=O)c4cccc(C(=O)N(C)C)c4)cc23)c1	inactive
COc1cccc(-c2cc(F)ccc2C2Cc3nc(N)nc(C)c3C(=O)N2)n1 (stereo not drawn)	active
Cc1cc(-c2cnn3c(NCC4CC(C)(O)C4)cc(Oc4cccnc4)nc23)ccc1C(=O)NC1CC1 (stereo not drawn)	inactive
CC(C)NC(=O)COc1cccc(-c2nc(Nc3ccc4[nH]ncc4c3)c3ccccc3n2)c1	active
CN(C)C1CCN(C(=O)c2ccc(NC(=O)Nc3ccc(-c4nc(N5CCOCC5)nc(N5CCOCC5)n4)cc3)cc2)CC1	active
